- STUDY_TARGET: Glutamate receptor ionotropic, AMPA (Rattus norvegicus, UniProt P19490+P19491+P19492+P19493)
- PROCEDURE_DETAILS: Ability to displace [3H]CP-526427 (3 nM) from binding site of the Ionotropic glutamate receptor AMPA in rat forebrain membrane
pIC50: −log10 of the molar value.
MEASUREMENT_TYPE: pIC50

LINE_NOTATION: Oc1nc(-c2ccc(Cl)cc2)nc2cc3c(cc12)OCO3
MEASUREMENT_TYPE: pIC50
VALUE: < 4.00
//
LINE_NOTATION: Oc1nc(-c2ccc(F)cc2)nc2cc3c(cc12)OCO3
MEASUREMENT_TYPE: pIC50
VALUE: < 4.00
//
LINE_NOTATION: Nc1ccc(-c2nc(O)c3cc4c(cc3n2)OCO4)cc1
MEASUREMENT_TYPE: pIC50
VALUE: < 4.00
//
LINE_NOTATION: Nc1ccc(-c2nnc(O)c3cc4c(cc23)OCO4)cc1
MEASUREMENT_TYPE: pIC50
VALUE: < 4.00
//
LINE_NOTATION: Oc1nc(-c2ccccc2)nc2cc3c(cc12)OCO3
MEASUREMENT_TYPE: pIC50
VALUE: < 4.00

Source of measurements: ChEMBL document CHEMBL1136491
